- System: control-shRNA-PC12 and Top2β-shRNA-PC12 cells
- MEASUREMENT PROTOCOL: 4-day MTT assay in PC12 knockdown cells
- Format: cell-based, rat
- CONDITIONS USED: control-shRNA-PC12 cells
EXPERIMENTAL READOUT: pIC50
Reminder that pIC50 is minus the log10 of a molar concentration.

Challenge: Field: pIC50 (control-shRNA-PC12 and Top2β-shRNA-PC12 cells). Entry: COc1cc([C@@H]2c3cc4c(cc3[C@@H](O[C@@H]3O[C@@H]5CO[C@@H](C)O[C@H]5[C@H](O)[C@H]3O)[C@H]3COC(=O)[C@H]23)OCO4)cc(OC)c1O [VP16, etoposide]
Response given: 5.72

###

- Tested on: control-shRNA-PC12 and Top2β-shRNA-PC12 cells
- MEASUREMENT PROTOCOL: 4-day MTT assay in PC12 knockdown cells
- Assay type: cell-based, rat
- CONDITIONS USED: Top2β-shRNA-PC12 cells
EXPERIMENTAL READOUT: pIC50
Interpret pIC50 as the negative base-10 log of the concentration measured in mol/L.

Challenge: Fill in the blank: the reported pIC50 of COc1cc([C@@H]2c3cc4c(cc3[C@@H](O[C@@H]3O[C@@H]5CO[C@@H](C)O[C@H]5[C@H](O)[C@H]3O)[C@H]3COC(=O)[C@H]23)OCO4)cc(OC)c1O [VP16, etoposide] is ____.
Response given: 5.80
